Give measured activity at 3 µM for each item. Keep answers brief.
Tested on: m-IMCD3 cells expressing PDE4 long forms
method summary: cAMP levels in PGE2-stimulated 3D m-IMCD3 cell culture media
Format: cell-based
condition notes: Mus musculus, mIMCD3; 3 μM test compound; compared to 100% for (DMSO + PGE2); read-out: cAMP level (% of PGE2-stimulated)
Description: HEK 293 and MDCK cells (Public Health England, Cell Culture Collections) were maintained in Dulbecco's Modified Eagle's Medium (DMEM) supplemented with 10% (v/v) fetal bovine serum (FBS) (Seralab), 2 mM L-glutamine and 100 U/mL penicillin streptomycin cocktail (ThermoFisher); termed complete media. Clonal HEK 293 cell lines were maintained in complete media supplemented with 0.6 mg/ml G418 (Enzo Life Sciences). […]
Numbers only, in %.

O=C(N1CCn2nc(N3C4CCC3CNC4)cc2C1)C(F)(F)c1ccccc1 [Example 126] | 39
O=C(OC1CCCC1)N1CCc2nc(N3C4CCC3CNC4)sc2C1 [Example 244] | 40
O=C(CC1CCCC1)N1CCc2nc(N3CC4CCC(C3)N4)sc2C1 [Example 276] | 41

Assign activity at 3 µM to the following record: CCN1CC2CCC(C1)N2c1nc2c(s1)CN(C(=O)N[C@H]1CCOc3ccccc31)CC2 [Example 294]
39
